Catalogue of CPE inhibition values
- test: inhibition of RSV-induced cytopathic effect – HEp-2 cells, primary 10 µM value included (AID 2391)
- condition.label: at 10 µM, active compounds read high
The campaign covered roughly 310,000 compounds. About 410 (0.13%) were called active. Not shown: some 2% with an inconclusive outcome. Only a sample is shown. Potency and affinity values are given separately.
readout.type: CPE inhibition (%)

compound="Cc1ccc(Cl)cc1N(C(=O)c1csnn1)C(C(=O)NC1CCCC1)c1ccco1 (stereo unspecified)" readout_type="CPE inhibition" experimental_value=1.87
compound=O=C(O)COc1ccc2c3c(c(=O)oc2c1)CCCC3 readout_type="CPE inhibition" experimental_value=-1.38
compound="CSCCC1NC(=O)N(CC(=O)Nc2c(C(C)C)cccc2C(C)C)C1=O (stereo unspecified)" readout_type="CPE inhibition" experimental_value=-0.56
compound=O=C(COc1ccccc1)Nc1ccccc1C(=O)NCc1ccco1 readout_type="CPE inhibition" experimental_value=-0.74
compound=CSc1ccc(/C=C(/NC(=O)c2ccc(C)cc2)C(=O)Nc2cccc(C)c2)cc1 readout_type="CPE inhibition" experimental_value=2.91
compound=Cc1ccc2nc(C)cc(C(=O)OCC(=O)Nc3c(C)n(C)n(-c4ccccc4)c3=O)c2c1 readout_type="CPE inhibition" experimental_value=2.74
compound="Cc1c(C(=O)O)oc2ccc3c(c12)C(O)CC(C)(C)O3 (stereo unspecified)" readout_type="CPE inhibition" experimental_value=1.72
compound=Cc1ccc2c(c1)COc1c3ccc(C(=O)NC(C)C)cc3nn1-2 readout_type="CPE inhibition" experimental_value=16.2
compound=O=C(CNC(=O)c1ccc(Cl)cc1)OCc1nc2ccccc2s1 readout_type="CPE inhibition" experimental_value=3.12
compound=CCN(CC)C1=N/C(=C\c2ccco2)C(=O)N1c1ccccc1 readout_type="CPE inhibition" experimental_value=2.62
compound="COc1cc2c(cc1OC)C(C)N(C(=O)c1ccc(C)o1)CC2 (stereo unspecified)" readout_type="CPE inhibition" experimental_value=3.08
compound=CC(=O)COc1ccc2c3c(c(=O)oc2c1)CCCC3 readout_type="CPE inhibition" experimental_value=27
compound="O=C(CC1C(=O)NCCN1Cc1ccoc1)NCc1cccc(OC(F)(F)F)c1 (stereo unspecified)" readout_type="CPE inhibition" experimental_value=-0.85
compound=CCCCOC(=O)c1ccc(NC(=O)c2ccc(F)cc2F)cc1 readout_type="CPE inhibition" experimental_value=3.03
compound="COc1cc2c(cc1OC)C(C)N(C(C)=O)CC2 (stereo unspecified)" readout_type="CPE inhibition" experimental_value=-1.08
compound=Cc1ccc2c(c1)COc1c3ccc(C(=O)N[C@@H](CO)C(C)C)cc3nn1-2 readout_type="CPE inhibition" experimental_value=15
